Biological target: CB2 (Homo sapiens)
Construct: measured in whole blood samples from nine different healthy human volunteers of working-age; endogenous in cells; host or cells: B-cells (and basophils and other leukocytes) in human whole blood
Assay: CB2 internalization flow cytometry assay in whole blood of diabetic patients and matched healthy participants
Type: cell-based
Conditions: Mean IC50 (Basophils) ± SD per diagnosis, Matched HPs (n = 8)
observation_type: IC50 (nM)

>>> observed_result("Cn1nnnc1Cn1nnc2c(N3CC[C@H](O)C3)nc(C(C)(C)C)nc21 [RG7774]")
57.2

====

Target: CB2 (Homo sapiens)
Construct: measured in whole blood samples from nine different healthy human volunteers of working-age; endogenous in cells; host or cells: B-cells (and basophils and other leukocytes) in human whole blood
Test: CB2 internalization flow cytometry assay in whole blood of diabetic patients and matched healthy participants
Assay type: cell-based
Settings: Mean IC50 (Basophils) ± SD per diagnosis, DM (all) (n = 8)
pIC50: −log10 of the molar value.
observation_type: pIC50

>>> observed_result("Cn1nnnc1Cn1nnc2c(N3CC[C@H](O)C3)nc(C(C)(C)C)nc21")
7.36

====

Target: CB2 (Homo sapiens, UniProt P34972)
Construct: measured in whole blood samples from nine different healthy human volunteers of working-age; endogenous in cells; host or cells: B-cells (and basophils and other leukocytes) in human whole blood
Sequence (P34972 whole entry): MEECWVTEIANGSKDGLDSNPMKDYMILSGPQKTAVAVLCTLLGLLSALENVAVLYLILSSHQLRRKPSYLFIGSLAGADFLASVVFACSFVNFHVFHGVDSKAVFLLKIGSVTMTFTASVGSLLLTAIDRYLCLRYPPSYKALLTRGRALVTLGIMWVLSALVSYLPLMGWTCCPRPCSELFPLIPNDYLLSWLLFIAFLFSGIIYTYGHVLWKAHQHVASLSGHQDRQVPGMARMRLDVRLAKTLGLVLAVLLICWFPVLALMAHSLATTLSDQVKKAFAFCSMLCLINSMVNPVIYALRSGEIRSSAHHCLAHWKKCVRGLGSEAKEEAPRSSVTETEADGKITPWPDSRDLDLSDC
Experiment: CB2 internalization flow cytometry assay in whole blood of working-age healthy participants
Type: cell-based
Conditions: Individual IC50 values, range over donors, healthy human participants; B-cells
pIC50: −log10 of the molar value.
observation_type: pIC50

>>> observed_result("Cn1nnnc1Cn1nnc2c(N3CC[C@H](O)C3)nc(C(C)(C)C)nc21 [RG7774]")
"6.84 to 7.19"

====

Biological target: CB2 (Homo sapiens)
Construct: measured in whole blood samples from nine different healthy human volunteers of working-age; endogenous in cells; host or cells: B-cells (and basophils and other leukocytes) in human whole blood
Test: CB2 internalization flow cytometry assay in whole blood of diabetic patients and matched healthy participants
Format: cell-based
Conditions: Mean IC50 (Basophils) ± SD per diagnosis, DM type 1 (n = 3)
observation_type: IC50

>>> observed_result("Cn1nnnc1Cn1nnc2c(N3CC[C@H](O)C3)nc(C(C)(C)C)nc21")
"47.2 nM"
